Biological target: LRRK2, WT (GST-tagged truncated LRRK2) (Homo sapiens)
Test: LRRK2 kinase assay (LanthaScreen), wild type
Format: biochemical
Conditions: wild type LRRK2; LanthaScreen, LRRKtide substrate
// reported IC50 per item
The figure you give is taken to be in nM; do not add the unit.

Cc1nnn(Cc2nc3cnc4ccc(C#N)cc4c3n2[C@@H]2CCN(C)C2)n1 [Example 34] :: 5.53
Cc1nnc(Cc2nc3cnc4ccc(Cl)cc4c3n2C2CCOCC2(F)F)s1 (centres unmarked) [Example 92] :: 10.9
C[C@@H]1C[C@H](n2c(Cc3cnc(CO)cn3)nc3cnc4ccc(Cl)cc4c32)CCO1 [Example 95] :: 4.6
Cc1nnc(Cc2nc3cnc4ccc(C(F)(F)F)cc4c3n2[C@@H]2CCO[C@H](C)C2)s1 [Example 74] :: 26.1
Cc1cnc(Cc2nc3cnc4ccc(C(F)(F)F)cc4c3n2[C@@H]2CCO[C@H](C)C2)cn1 [Example 29] :: 6.47

# input Assign IC50 to the following record: Cc1cn(Cc2nc3cnc4ccc(Cl)cc4c3n2C2CN(C)CC2(F)F)nn1 (centres unmarked) [Example 48]
# output 3.27

# input Note IC50 for the compound shown: C[C@@H]1C[C@H](n2c(Cc3nccs3)nc3cnc4ccc(F)cc4c32)CCO1 [Example 64]
# output 9.8

# input Provide measured IC50 value, entry: Cc1nc(Cc2nc3cnc4ccc(Cl)cc4c3n2C2CCOCC2(F)F)no1 (centres unmarked) [Example 75]
# output 25.7

# input Kindly indicate its recorded IC50. Item: Cc1cn(Cc2nc3cnc4ccc(Cl)cc4c3n2C2CCOCC2(F)F)nn1 (centres unmarked) [Example 46]
# output 9.31

# input Respond only with IC50 recorded for Cc1cnc(Cc2nc3cnc4ccc(Cl)cc4c3n2C2CN(C)CC2(F)F)cn1 (centres unmarked) [Example 50]
# output 5.06

# input Quickly give me recorded IC50 for Cc1cc(Cc2nc3cnc4ccc(C(F)F)cc4c3n2[C@@H]2CCO[C@H](C)C2)no1 [Example 91]
# output 18

# input Quote IC50 reported for C[C@@H]1C[C@H](n2c(Cc3cnc(C(F)(F)F)cn3)nc3cnc4ccc(C#N)cc4c32)CCO1 [Example 39] please.
# output 17.4

# input Return IC50 for the following compound: Cc1cc(Cc2nc3cnc4ccc(Cl)cc4c3n2[C@@H]2CCN(C)C2)ncn1 [Example 40]
# output 9.73

# input Consider the compound Cc1cn(Cc2nc3cnc4ccc(Cl)cc4c3n2C2CN(C)CC2(F)F)nn1 (centres unmarked) [Example 82] . State its measured IC50.
# output 6.33

# input Using the record for N#CCC1CC(n2c(C3CCC3)nc3cnc4ccc(Cl)cc4c32)CCO1 (centres unmarked) [Example 10] , state its measured IC50.
# output 1790

# input Give the measured IC50 for C[C@@H]1C[C@H](n2c(C3CCCC3)nc3cnc4ccc(C#N)cc4c32)CCO1 [Example 30]
# output 20.6

# input Look up IC50 of Cc1nc(Cc2nc3cnc4ccc(Cl)cc4c3n2C2CN(C)CC2(F)F)no1 (centres unmarked) [Example 88] and report it.
# output 9.25

# input Fill in reported IC50 for this entry: Cc1cnn(Cc2nc3cnc4ccc(C#N)cc4c3n2C2CN(C)CC2(F)F)n1 (single isomer, unassigned) [Example 3]
# output 31.8

# input Supply measured IC50 of Cc1cc(Cc2nc3cnc4ccc(Cl)cc4c3n2C2CN(C)CC2(F)F)no1 (centres unmarked) [Example 51] in your reply.
# output 5.78

# input Read the entry Cc1cnc(C(O)c2nc3cnc4ccc(Cl)cc4c3n2[C@@H]2CCO[C@H](C)C2)cn1 (single isomer, unassigned) [Example 15] and write its reported IC50.
# output 16.3

# input Read the entry FC1(F)COCCC1n1c(Cn2cc(C3CC3)nn2)nc2cnc3ccc(Cl)cc3c21 (centres unmarked) [Example 94] and write its reported IC50.
# output 6.35

# input Note down IC50 recorded for C[C@@H]1C[C@H](n2c(Cc3cscn3)nc3cnc4ccc(C(F)(F)F)cc4c32)CCO1 [Example 69]
# output 7.39

# input Give the reported IC50 for this compound. C[C@@H]1C[C@H](n2c(Cc3cnc(C(F)(F)F)cn3)nc3cnc4ccc(F)cc4c32)CCO1 [Example 73]
# output 16.9

Ref: patent US11312713B2
